# Tested on: MDA-MB231
# Experiment description: Cell proliferation, MTT assay
# Type: cell-based
# Cond: Homo sapiens, MDA-MB-231, 72 h; MDA-MB231, 3-day treatment; read-out: Anti-proliferative activity EC50
Quick list: EC50 per entry.
Give the number; µM is assumed, so skip it.

Compound smiles: Nc1ncnc2c1ncn2[C@@H]1C=C(CO)[C@@H](O)[C@H]1O
EC50 [µM]: 0.93
--
Compound smiles: Cc1cc(C)c(CNC(=O)c2cc(-c3ccc(CN4CCOCC4)cc3)cc3c2cnn3C2CCCC2)c(=O)[nH]1
EC50 [µM]: 11

Field: next compound
Give the value of EC50 reported for the following: "CC(C)N(CCCNC(=O)Nc1ccc(C(C)(C)C)cc1)C[C@H]1O[C@@H](n2ccc3c(N)ncnc32)[C@H](O)[C@@H]1O" 45

* * *

# System: BT549
# Experiment description: Cell proliferation, MTT assay
# Format: cell-based
# Cond: Homo sapiens, BT-549, 360 h, read-out: EC50, 15-day treatment
Measure: EC50 (nM)
Give the number; nM is assumed, so skip it.

Give the value of EC50 reported for the following: Nc1nccc2c1ncn2C1C=C(CO)C(O)C1O (stereo not shown) [Compound 4, 3-deazaneplanocin A] 65
